Reported inhibition at 10 µM values follow for various molecules
Test system: RPMI-8226
assay.summary: NCI-60 one-dose screen
Format: cell-based
study.conditions: Homo sapiens; RPMI-8226, Leukemia panel; single dose 10^−5 M; read-out: Growth inhibition %

# smiles.data, measure.unit, inhibition at 10 µM
rows = [
    ("COc1ccc(CNc2c3ccccc3nc3ccccc23)cc1F", "%", 106),
    ("c1ccc(CCNc2c3ccccc3nc3ccccc23)cc1", "%", 80.5),
    ("Fc1ccc(CNc2c3ccccc3nc3ccccc23)cc1", "%", 100),
    ("COc1ccc(CNc2c3ccccc3nc3ccccc23)cc1OC", "%", 99.4),
    ("Cc1ccccc1CNc1c2ccccc2nc2ccccc12", "%", 109),
    ("COc1ccc(CNc2c3ccccc3nc3ccccc23)c(OC)c1", "%", 65.1),
    ("COc1ccc2nc3ccccc3c(NCc3ccc(Cl)cc3)c2c1", "%", 145),
    ("Cc1ccc(CNc2c3ccccc3nc3ccccc23)cc1", "%", 111),
    ("Fc1cccc(CNc2c3ccccc3nc3ccccc23)c1", "%", 89.9),
    ("Clc1cccc(CNc2c3ccccc3nc3ccccc23)c1", "%", 124),
    ("COc1ccc2nc3ccccc3c(NCc3ccc(F)cc3)c2c1", "%", 143),
    ("c1ccc(CNc2c3ccccc3nc3ccccc23)cc1", "%", 92.3),
    ("Fc1cccc(CNc2c3ccccc3nc3ccccc23)c1F", "%", 47.1),
    ("COc1ccc(CNc2c3ccccc3nc3ccc(OC)cc23)cc1", "%", 148),
    ("Fc1ccccc1CNc1c2ccccc2nc2ccccc12", "%", 87.7),
    ("c1csc(-c2ccc(CNc3c4ccccc4nc4ccccc34)cc2)c1", "%", 144),
]
